Biological target: P. falciparum apicoplast DNA polymerase (Pf-apPOL) (Plasmodium falciparum, UniProt Q8ILY1)
Sequence (Q8ILY1 entry or part of it): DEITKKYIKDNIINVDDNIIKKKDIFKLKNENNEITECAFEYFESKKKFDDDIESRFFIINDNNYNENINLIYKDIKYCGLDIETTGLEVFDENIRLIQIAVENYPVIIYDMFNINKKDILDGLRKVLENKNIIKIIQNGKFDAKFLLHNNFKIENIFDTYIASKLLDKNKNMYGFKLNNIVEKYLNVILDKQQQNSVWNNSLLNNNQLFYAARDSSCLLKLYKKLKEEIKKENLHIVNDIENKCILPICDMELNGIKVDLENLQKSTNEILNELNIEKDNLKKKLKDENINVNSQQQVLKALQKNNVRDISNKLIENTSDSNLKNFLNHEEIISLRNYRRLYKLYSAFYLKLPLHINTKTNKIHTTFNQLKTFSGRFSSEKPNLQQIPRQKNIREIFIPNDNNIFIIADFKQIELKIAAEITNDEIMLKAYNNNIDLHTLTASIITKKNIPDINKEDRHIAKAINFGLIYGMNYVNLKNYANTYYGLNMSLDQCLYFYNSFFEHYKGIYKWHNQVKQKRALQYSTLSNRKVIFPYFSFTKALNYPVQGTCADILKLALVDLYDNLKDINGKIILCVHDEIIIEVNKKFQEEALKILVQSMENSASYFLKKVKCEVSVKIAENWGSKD
Assay: Fluorescence-based high-throughput DNA polymerase assay (molecular beacon), primary screen and dose-response
Assay type: biochemical
Details: DRC-2; 40'; concentration 2.5
Description: The HT assay employs a molecular beacon, a stem-loop DNA template with a Cy3 dye and the Black Hole Quencher on the 3′ and 5′ ends of the DNA, respectively. Pf-apPOL concentration is based on a calculated absorptivity of ε280 = 56750 M^−1 cm^−1. […] To identify apPOL inhibitors we utilised our previously developed high-throughput DNA polymerase assay. […] The assay accurately recapitulates the kinetic behaviour of apPOL, as measured through more conventional low-throughput gel-based assays. […]
quantityMeasured: % inhibition Apol 40' (%)
Reply numerically in %, unit not repeated.

>>> observedresult("N#CC(=NNc1cc(C(F)(F)F)cc(C(F)(F)F)c1)C(=O)c1ccco1")
8

Suppose we examine the molecule CC(C)(C)c1cc(C(=O)C(C#N)=NNc2cccc(Cl)c2)no1 ; what % inhibition Apol 40' value has been reported? 10

For the molecule O=C1c2ccccc2C(=O)N1Oc1ccc([N+](=O)[O-])c([N+](=O)[O-])c1 , what % inhibition Apol 40' is on record? 6.34

I would be grateful if you could share the reported % inhibition Apol 40' for Cc1cc(C)c2c(O)nc(SCC(=O)c3ccc(O)c(O)c3)nc2n1 . 32

// % inhibition Apol 40' lookup, key: O=C1C(=Cc2ccncc2)Oc2c1ccc1c2CN(Cc2ccc3c(c2)OCO3)CO1 1.87

Reported % inhibition Apol 40', molecule CCN1C(=O)C(=Cc2cccc(OC)c2O)SC1=S : ____ 2.6

// lookup % inhibition Apol 40' for O=[N+]([O-])c1ccc(/C=C/c2ccc3ccccc3n2)o1 44

###

target: P. falciparum apicoplast DNA polymerase (Pf-apPOL) (Plasmodium falciparum); test: Fluorescence-based high-throughput DNA polymerase assay (molecular beacon), primary screen and dose-response; assay type: biochemical; conditions: DRC-2; 90'; concentration 5
quantityMeasured: % inhibition ApPOL 90' (%)
Report as a plain number; the unit % is understood.

>>> observedresult("Cc1ccc(NC(=O)Cn2ccc3c(=O)[nH]ccc32)cc1F [Molecule 48, O=C(Cn1ccc2c1cc[nH]c2=O)Nc1ccc(c(c1)F)C]")
2.25
>>> observedresult("O=c1[nH]c2ccc([N+](=O)[O-])cc2c(-c2ccccc2)c1Sc1nc2ccccc2o1 [KU0067471]")
7
>>> observedresult("Cc1cccc(CC(=O)N2CCc3c(nc4cc(-c5ccccc5)[nH]n4c3=O)C2)c1 [Molecule 12]")
22

From here, focus on the item given below.
Test system P. falciparum apicoplast DNA polymerase (Pf-apPOL) (Plasmodium falciparum); read-out % inhibition ApPOL 90'; what value for O=C1N=C(Nc2cccc(Cl)c2Cl)S/C1=C\c1ccco1 [Molecule 3, O=C1N=C(S/C/1=C\c1ccco1)Nc1cccc(c1Cl)Cl] ? 42

###

Reported values of % inhibition Apo pol 5' for individual entries
biological target: P. falciparum apicoplast DNA polymerase (Pf-apPOL) (Plasmodium falciparum); assay: Fluorescence-based high-throughput DNA polymerase assay (molecular beacon), primary screen and dose-response; type: biochemical; conditions: DRC-2; 5'; concentration 40
Please reply with the bare figure in % and do not write the unit itself.

>>> observedresult("Cc1cccc(CC(=O)N2CCc3c(nc4cc(-c5ccccc5)[nH]n4c3=O)C2)c1 [Molecule 12]")
48
>>> observedresult("O=C(CSc1nnc(-c2ccco2)[nH]1)c1ccc(Cl)cc1 [KU0029065]")
-5.63
>>> observedresult("COc1ccc(-c2cc(=O)c3cc(O)ccc3o2)cc1OC [KU0193655]")
39
>>> observedresult("O=C(Cn1ccc2c(=O)[nH]ccc21)Nc1cc(F)ccc1F [Molecule 42, O=C(Cn1ccc2c1cc[nH]c2=O)Nc1cc(F)ccc1F]")
37

Could you share which % inhibition Apo pol 5' value was measured for COCC(=O)Nc1c(-c2cccc(F)c2)nc2cc(C)ccn12 [Molecule 44, COCC(=O)Nc1c(nc2n1ccc(c2)C)c1cccc(c1)F] ? 52

###

biological target: UniProt:Q8ILY1; assay: Fluorescence-based high-throughput DNA polymerase assay (molecular beacon), primary screen and dose-response; assay type: biochemical; details: DRC-1; 90'; conc 80
Listing of entries alongside the reported % inhibition Apol 90'.
Just the number please, in %, no unit attached.

Take a look at these entries with their results.
>>> observedresult("C=CCOc1c(Br)cc(Br)cc1/C=C1\\SC(=N)NC1=O")
95.0722
>>> observedresult("COC(=O)c1sc(-c2ccc(C(C)(C)C)cc2)cc1NC(=O)CCC(=O)O")
95.9877

Value wanted: % inhibition Apol 90' (UniProt:Q8ILY1) of entry Cc1ccc(N2NC(=O)/C(=C\c3ccc(O)c([N+](=O)[O-])c3)C2=O)cc1Cl 94.8173

Observed % inhibition Apol 90' on UniProt:Q8ILY1 for COc1ccccc1C1CC(=O)Oc2cc3c(cc21)OCO3 (stereo not shown) , please. 93.8969

Give the reported % inhibition Apol 90' for Cc1ccc(NC(=O)Cn2ccc3c(=O)[nH]ccc32)c(C)c1 (system: UniProt:Q8ILY1). 93.7132

% inhibition Apol 90' of O=C1NN(c2ccc(Cl)c(Cl)c2)C(=O)/C1=C/c1ccc(-c2ccc3c(c2)C(=O)OC3)o1 on UniProt:Q8ILY1? 95.1265

Short answer please: % inhibition Apol 90', UniProt:Q8ILY1, entry CCOc1nc2cccc(C(=O)OC(C)OC(=O)OC3CCCCC3)c2n1Cc1ccc(-c2ccccc2-c2nnn[nH]2)cc1 (stereo not shown) 94.456

###

molecular target: P. falciparum apicoplast DNA polymerase (Pf-apPOL) (Plasmodium falciparum, UniProt Q8ILY1); assay: Fluorescence-based high-throughput DNA polymerase assay (molecular beacon), primary screen and dose-response; assay type: biochemical; details: DRC-2; read at 40'; concentration 80
quantityMeasured: % inhibition Apol 40' 80
Express your answer as a number followed by its unit.

Reference set, count: 2
>>> observedresult("COc1ccc(C2CC(c3ccc(Cl)cc3Cl)Nc3nc(N)nn32)cc1OC (stereo not drawn)")
"51%"
>>> observedresult("CC(C)CC(C(=O)O)N1C(=O)C2C3C=CC(C2C1=O)C1C(=O)N(C(CC(C)C)C(=O)O)C(=O)C31 (stereo not drawn)")
"49%"

Using the record for O=C(CCc1csc(NC(=O)Nc2ccccc2)n1)Nc1nc2ccccc2s1 , report its % inhibition Apol 40' 80. 49%

###

Reported % inhibition Apo pol 10' values for the following molecules.
biological target: P. falciparum apicoplast DNA polymerase (Pf-apPOL) (Plasmodium falciparum, UniProt Q8ILY1); experiment: Fluorescence-based high-throughput DNA polymerase assay (molecular beacon), primary screen and dose-response; assay type: biochemical; details: DRC-1; 10'; concentration 2.5
Supply the numeric figure in %, leaving out any unit text.

>>> observedresult("Oc1cccc2ccc(/C=C/c3ccc4c(c3)OCO4)nc12")
-0.2183
>>> observedresult("COc1ccc(C(=O)Nc2cccc(-c3nc4ncccc4o3)c2)cc1[N+](=O)[O-]")
4.335
>>> observedresult("O=C(O)c1ccc(-c2nc3cc(-c4ccc5nc(-c6ccc(C(=O)O)cc6)[nH]c5c4)ccc3[nH]2)cc1")
4.605

// switching to the query molecule
Please report the recorded % inhibition Apo pol 10' for COCCN(CCOC)Cc1c(O)ccc2c1OC(=Cc1cc(Br)ccc1OC)C2=O . -2.842

###

Target: UniProtKB Q8ILY1
Test: Fluorescence-based high-throughput DNA polymerase assay (molecular beacon), primary screen and dose-response
Assay type: biochemical
Conditions: DRC-1; 180'; concentration 40
Text: The HT assay employs a molecular beacon, a stem-loop DNA template with a Cy3 dye and the Black Hole Quencher on the 3′ and 5′ ends of the DNA, respectively. Pf-apPOL concentration is based on a calculated absorptivity of ε280 = 56750 M^−1 cm^−1. […] To identify apPOL inhibitors we utilised our previously developed high-throughput DNA polymerase assay. […] The assay accurately recapitulates the kinetic behaviour of apPOL, as measured through more conventional low-throughput gel-based assays. […]
Overview of recorded % inhibition apPOL 180' for various compounds

>>> observedresult("CC(C)(C)OC(=O)COc1ccc2cc(-c3ccccc3)c(=O)oc2c1 [Molecule 81]")
"50.3603%"
>>> observedresult("Cc1ccc(CCNC(=O)c2cnn3c(O)c(Cc4ccccc4F)c(C)nc23)cc1 [KU0097142]")
"70.309%"
>>> observedresult("O=C1N/C(=N/c2ccccc2Cl)S/C1=C/c1ccc([N+](=O)[O-])o1 [KU0054524]")
"57.9424%"
>>> observedresult("COCCN(CCOC)Cc1c(O)ccc2c1OC(=Cc1cc(Br)ccc1OC)C2=O [KU0198471]")
"99.2826%"
>>> observedresult("O=C1NCCCn2cc(S(=O)(=O)Nc3ccccc3)cc21 [KU0214835]")
"41.6614%"

Consider now this further compound.
Which % inhibition apPOL 180' is reported for this compound? Cc1ccc(NC(=O)C2CCN(C(=O)c3cc4ccsc4[nH]3)CC2)c(Br)c1 [Molecule 14] 63%
